# Assay: chemical genetic growth profiling, strain panel (AID 1159580);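 also: tested at 20 µM; growth read once vehicle control cultures reached saturation at 30 °C; 1 = growth at the plate median or of vehicle wells; lower values mean less growth of the strain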
# Conditions used: S. cerevisiae deletion strains, growth OD, locus YBR229C, strain ROT2, hits give low values
In all, about 5,500 compounds went through this assay and about 2,000 (36%) were called active. Inconclusive results (about 18%) are left out. This is one part of the list.

Compound	normalized growth
CCn1cc([N+](=O)[O-])nc1C	1.02
COc1c2occc2cc2ccc(=O)oc12	1.01
Cc1ccc(S(=O)(=O)Oc2ccc(CC#N)cc2)cc1	0.963
COc1ccc2ccc(=O)oc2c1CC=C(C)C	0.885
CCCCCc1ccc(S(=O)(=O)Nc2cccnc2Oc2ccc(Cl)cc2)cc1	1
N#C/C(=C\Nc1ccc2c(c1)OCCO2)S(=O)(=O)c1ccc(C(F)(F)F)cn1	1
CCNc1nc(Cl)nc(NC(C)C)n1	1.01
Cc1cc(C)nc(NS(=O)(=O)c2ccc(N)cc2)n1	0.999
COc1cc2ccc(=O)oc2c2ccoc12	0.998
CCOc1nc2cccc(C(=O)OC(C)OC(=O)OC3CCCCC3)c2n1Cc1ccc(-c2ccccc2-c2nn[nH]n2)cc1 (centres undefined)	0.996
O=C1c2ccc(O)c(O)c2C(=O)c2c(O)ccc(O)c21	1.01
COC(=O)C[C@H]1C(C)(C)C(OC(C)=O)[C@]2(O)C=C3C4CC(=O)O[C@@H](c5ccoc5)[C@]4(C)CCC3[C@@]1(C)C2=O (some centres undefined)	1
O=C(O)c1cc2cc(Cl)ccc2[nH]1	1.01
Cc1ccc(S(=O)(=O)Oc2cc(=O)n(C)c3ccccc23)cc1	0.967
COc1ccc(/C(C#N)=C/c2ccc(OC)c(OC)c2)cc1	0.98
COc1ccc2c(=O)c(-c3cc4c(cc3OC)OCO4)coc2c1	1
CC(=O)c1csc([N+](=O)[O-])c1	1.02
COc1cc2ccc(=O)oc2c(OC)c1OC	1.02
COc1c2c(cc3occ(-c4ccc5c(c4)OCO5)c(=O)c13)OC(C)(C)C=C2	0.987
O=c1cc(-c2ccc(O)cc2)oc2cc(O[C@@H]3O[C@H](CO)[C@@H](O)[C@H](O)[C@H]3O[C@@H]3OC[C@](O)(CO)[C@H]3O)cc(O)c12	1.01
NNC(=S)Nc1ccc(C(F)(F)F)cc1	0.895
CC(C)=CCc1c(O)cc2occ(-c3ccc4c(c3)OCO4)c(=O)c2c1O	1.02
CC(C)=CCC1=C(O)c2ccccc2C(=O)C1=O	0.963
CC(C(=O)O)c1ccc(N2Cc3ccccc3C2=O)cc1 (centres undefined)	1.01
Cc1ncc([N+](=O)[O-])n1CCO	0.944
N#CC(C#N)=CNc1cc(C(F)(F)F)ccc1N1CCCCC1	1
CN(C)c1nc(N(C)C)nc(N(C)C)n1	1.01
COC(=O)c1ccccc1-n1cccc1C(=O)OC	0.975
O=C(NC(c1ccccc1)C(N=Cc1ccccc1)c1ccccc1)c1ccccc1 (centres undefined)	1.02
COc1cc2c(cc1-c1coc3c4c(c(OC)cc3c1=O)OC(C)(C)C=C4)OCO2	0.994
O=c1nc(-c2ccccc2)nc(-c2ccccc2)[nH]1	1
COC(=O)C[C@H]1C(C)(C)[C@@H](OC(C)=O)[C@@H]2CC3C4CC(=O)O[C@@H](c5ccoc5)[C@]4(C)CCC3[C@@]1(C)C2=O (some centres undefined)	0.999
Cc1cc(C)c(C(=O)NCCNc2ccc(C(F)(F)F)cc2[N+](=O)[O-])c(C)c1	0.951
NC(=S)Nc1cc(Cl)ccc1Cl	0.976
